Here the recorded GI50 is given for each entry.
# System: T47D
# experiment summary: NCI tumour cell line growth inhibition, 48 h
Active and inactive are the calls of the source. Rule as the data show it: active = GI50 up to about 1.1 µM and inactive = higher.

{"compound": "CC(O)c1nc(C#N)c(N)o1 (stereo not drawn)", "GI50": "> 100 µM (inactive)"}
{"compound": "N#Cc1sc2c(c1OC(=O)c1ccccc1)c(=O)n(-c1ccccc1)c(=S)n2-c1ccccc1", "GI50": "16.2 µM (inactive)"}
{"compound": "COc1ccc2c(c1)CC[C@@H]1C2CC[C@]2(C)C(=O)N(CCN(C)C)C(=O)CC12 (stereo partly drawn)", "GI50": "> 100 µM (inactive)"}
{"compound": "CC(C)(C)CN1[C@@H]2CCCC[C@H]2N(CC(C)(C)C)P1(=O)Cc1ccccc1", "GI50": "10.1 µM (inactive)"}
{"compound": "CC1=C2c3ccccc3N(S(=O)(=O)c3ccccc3)[C@H]2[C@H](C(=O)N2C3CC4CC[C@@]3(CS2(=O)=O)C4(C)C)CC1 (stereo partly drawn)", "GI50": "10.6 µM (inactive)"}
{"compound": "CCN(CC)/[N+]([O-])=N/OCOC(C)=O", "GI50": "> 100 µM (inactive)"}
{"compound": "C#CC(O)/C=C/C(O)CCCC(O)CC#CC(O)C#CC(O)CCCC(O)/C=C/CCCCCC(=O)CCCCCCCCCCCCCC(O)C(O)C#CC(=O)O (stereo not drawn)", "GI50": "10.9 µM (inactive)"}
{"compound": "CCCCCCCCCC[C@H](O)[C@H](O)CC[C@@H](O)[C@H]1CC[C@@H]([C@H]2CC[C@H](CCCCCCC[C@@H](O)CC3=C[C@H](C)OC3=O)O2)O1", "GI50": "3.16 µM (inactive)"}
